testedSystem: DYRK1A (Homo sapiens (Human))
testMethodNotes: DYRK1A kinase assay (HotSpot, Reaction Biology)
Format: biochemical
testConditions: purified recombinant kinase, 10 μM ATP, room temperature 120 min
For each record, write down the corresponding IC50.

# annotated cases, reported IC50 shown
mol: CC(C)OC(=N)c1nc2ccc3ncnc(Nc4ccc5c(c4)OCO5)c3c2s1
recordedResult: 125 nM
//
mol: COC(=N)c1nc2ccc3ncnc(Nc4ccc(F)cc4F)c3c2s1
recordedResult: 0.94 nM
//
mol: CCN(CC)CCNC(=N)c1nc2ccc3ncnc(Nc4ccc5c(c4)OCO5)c3c2s1
recordedResult: 1000 to 10000 nM
//
mol: NC(=O)c1nc2ccc3ncnc(Nc4ccc(Br)cc4F)c3c2s1
recordedResult: 194 nM
//
mol: N=C(NCCN1CCOCC1)c1nc2ccc3ncnc(Nc4ccc5c(c4)OCO5)c3c2s1
recordedResult: 1000 to 10000 nM

Identify measured IC50 corresponding to N=C(NCc1ccncc1)c1nc2ccc3ncnc(Nc4ccc(Br)cc4F)c3c2s1 1000 to 10000 nM
